System: Fibroblast
Test details: Multiplex assay against human fibroblast
Format: toxicity, cell-based
Test parameters: 12 h, 1 µM, compound concentration 1 uM, replicate 1
Assay metric: Total Cell Count

Molecule	Assay metric	Observed
COc1cc(OC2CCN(C(C)=O)CC2)ccc1C(=O)N1CCC(N2C(=O)OCc3ccccc32)CC1	Total Cell Count	157
CCc1nn2c(C)cc(C)nc2c1Cc1ccc(-c2nnc(C3CCNCC3)o2)cc1	Total Cell Count	153
Nc1nc(CC(=O)Nc2ccc(CCNC[C@H](O)c3ccccc3)cc2)cs1	Total Cell Count	164
CCCCC[C@H](O)/C=C/[C@H]1[C@H](O)CC(=O)[C@@H]1CCCCCCC(=O)O	Total Cell Count	150
CN1CCC(C(=O)c2cccc(NC(=O)c3c(F)cc(F)cc3F)n2)CC1	Total Cell Count	153
COc1cc2nc(N3CCN(C(=O)COc4c(OC)cccc4C(C)C)CC3)nc(N)c2cc1OC.Cl.Cl	Total Cell Count	123
CN1C[C@H](C(=O)N[C@]2(C)O[C@@]3(O)[C@@H]4CCCN4C(=O)[C@H](Cc4ccccc4)N3C2=O)C[C@@H]2c3cccc4[nH]cc(c34)C[C@H]21.CS(=O)(=O)O [DIHYDROERGOTAMINE MESYLATE]	Total Cell Count	127
Cl.Cl.OCCOCCN1CCN(C(c2ccccc2)c2ccc(Cl)cc2)CC1 (stereo unspecified) [HYDROXYZINE HYDROCHLORIDE]	Total Cell Count	177
Cc1cc(-c2ccc3c(c2)CC[C@H]3N2CC3(CCN(C(=O)Cc4cn5cc(C)sc5n4)CC3)C2)ncn1	Total Cell Count	150
CSc1nc(NC2CCCC2)c([N+](=O)[O-])c(NC2CCCC2)n1	Total Cell Count	137
CN(C)C/C=C/C(=O)Nc1ccc(C(=O)N2CCCC(Nc3ncc(Cl)c(-c4c[nH]c5ccccc45)n3)C2)cc1 (stereo unspecified)	Total Cell Count	152
N[C@](CC1c2ccccc2Oc2ccccc21)(C(=O)O)[C@H]1C[C@@H]1C(=O)O	Total Cell Count	189
COc1ccc2c(c1OCc1ccccc1)C[C@@H](C(=O)O)N(C(=O)C(c1ccccc1)c1ccccc1)C2	Total Cell Count	157
O=c1ccc2ccc(OCCCCN3CCN(c4cccc5sccc45)CC3)cc2[nH]1	Total Cell Count	126
C=CCN1C[C@H](C(=O)N(CCCN(C)C)C(=O)NCC)C[C@@H]2c3cccc4[nH]cc(c34)C[C@H]21	Total Cell Count	186
COCCCN1CCC(NC(=O)c2cc(Cl)c(N)c3c2OCC3)CC1 [PRUCALOPRIDE]	Total Cell Count	132

Hey, just so you know, these numbers are from ChEMBL document CHEMBL5058577.
